- System: THP-1 cells
- assay.notes: Measurement of IL-1β production, hTRF protocol (second alternative procedure), THP-1 cells
- Assay type: cell-based, human
- reported.conditions: Homo sapiens, THP-1, IL-1β production, human; read-out: NLRP3 hILIB EC50
Parameter: EC50. Scope: all listed entries.
metric.name: EC50 (µM)

{"columns": ["compound", "measured.result"],
 "data": [
  ["CCC(=O)NCCc1cc2c(N)nc3cc(-c4ccn[nH]4)ccc3c2[nH]1", 1],
  ["Nc1nc2cc(-c3cc[nH]n3)ccc2c2cn(CCNC(=O)c3ncc(F)cc3F)nc12", 0.8],
  ["Cc1cc(C)n(CCn2cc3c(n2)c(N)nc2cc(-c4cc[nH]n4)ccc23)n1", 0.31],
  ["Nc1nc2cc(-c3cc[nH]n3)ccc2c2cn(CCNCc3cccc(F)c3)nc12", 1.91],
  ["Nc1nc2cc(-c3cc[nH]n3)ccc2c2cn(CCNC(=O)c3cnn4cccnc34)nc12", 2.39],
  ["Nc1nc2cc(-c3cc[nH]n3)ccc2c2nn([C@H]3CC[C@H](O)CC3)cc12", 1.73],
  ["NCCCc1nc2c(N)nc3cc(-c4ccn[nH]4)ccc3c2s1", 3.92],
  ["Cc1cc(C(=O)NCCn2cc3c(n2)c(N)nc2cc(-c4cc[nH]n4)ccc23)nn1C", 1.41],
  ["CC(=O)N1CCOCC1Cn1cc2c(N)nc3cc(-c4ccn[nH]4)ccc3c2n1 (stereo not shown)", 4.38],
  ["COc1ccc(C(=O)NCCn2cc3c(n2)c(N)nc2cc(-c4cc[nH]n4)ccc23)cc1", 0.78],
  ["Nc1nc2cc(-c3cc[nH]n3)ccc2c2nn(C[C@H]3CCC(=O)N3)cc12", 2.51],
  ["Cn1ccnc1C(=O)NCCn1cc2c(n1)c(N)nc1cc(-c3cc[nH]n3)ccc12", 0.46],
  ["Nc1nc2cc(-c3ccn[nH]3)ccc2c2sc(CCCOCc3ccccc3)nc12", 6.28]
]}
